TARGET OR TEST SYSTEM: Sgo1_(1-130) (human)
MEASUREMENT DESCRIPTION: ITC
Quick list: Kd per entry.

[[record]]
substance = "CPC_(ISB10-280) (INCENP_(1-58), Survivin full length and Borealin_(10-280)) (from UniProt Q9NQS7 1-58; O15392 1-142; Q53HL2 10-280) (complex)"
measured_value = "57 nM"


q: Consider the substance CPC_(ISB10-221) (INCENP_(1-58), Survivin and Borealin_(10-221)) (from UniProt Q9NQS7 1-58; O15392 1-142; Q53HL2 10-221) (complex) . State its measured Kd.
a: 163 nM

* * *

TARGET OR TEST SYSTEM: Sgo1_(1-415) (human) (UniProt Q5FBB7)
MEASUREMENT DESCRIPTION: ITC
VALUE TYPE: pKd
To interpret pKd, take it as minus log10 of a concentration measured in moles per litre.

q: Report value only: pKd, Sgo1_(1-415) (human) (UniProt Q5FBB7), CPC_(ISB10-280) (INCENP_(1-58), Survivin full length and Borealin_(10-280)) (from UniProt Q9NQS7 1-58; O15392 1-142; Q53HL2 10-280) (complex)
a: 7.28
